Numbers sourced from paper PMC2840032.

tested_system: human PRDX5 (Homo sapiens, UniProt P30044)
Construct: 6xHis (N); made in house; host or cells: E. coli strain M15 (pRep4)
Sequence (P30044 53-214): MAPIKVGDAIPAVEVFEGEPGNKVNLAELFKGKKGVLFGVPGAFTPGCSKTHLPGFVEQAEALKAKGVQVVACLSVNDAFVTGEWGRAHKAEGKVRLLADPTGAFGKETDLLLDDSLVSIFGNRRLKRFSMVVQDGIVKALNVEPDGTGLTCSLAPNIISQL
procedure_summary: NMR screening: STD factor (f STD) of fragments with PRDX5
Type: binding
condition_info: Figure 2; relative degree of saturation normalized to that of F090
Examples of compounds with documented STD factor (f STD) follow.
// no unit, no text: just the number

The recorded STD factor (f STD) for entry `Oc1cccc2[nH]c3ccccc3c12` equals 42

The recorded STD factor (f STD) for entry `O=C(c1ccccc1)c1ccc(O)cc1O` equals 69

The recorded STD factor (f STD) for entry `Oc1ccccc1-c1ccccc1` equals 88

The recorded STD factor (f STD) for entry Oc1ccccc1Cc1ccccc1O [F090, bis-(2-hydroxyphenyl)-methan] equals 100

The recorded STD factor (f STD) for entry `Oc1ccc(-c2ccc(O)cc2)cc1` equals 76

The recorded STD factor (f STD) for entry `Oc1ccccc1O` equals 32

---

tested_system: human PRDX5 (Homo sapiens)
Construct: 6xHis (N)
procedure_summary: KD measurements by STD factor variation upon titration
condition_info: STD titration, reduced PRDX5; read-out: dissociation constant KD
quantity_kind: Kd

The recorded Kd for entry Oc1ccccc1Cc1ccccc1O [F090, bis-(2-hydroxyphenyl)-methan] equals 1200 µM
